target: UniProt P34976; assay: Evaluation of Angiotensin II antagonistic activity by displacement of [125I]-Sar Ile-AII at the rabbit aorta Angiotensin II receptor, type 1
Sequence (P34976 whole entry): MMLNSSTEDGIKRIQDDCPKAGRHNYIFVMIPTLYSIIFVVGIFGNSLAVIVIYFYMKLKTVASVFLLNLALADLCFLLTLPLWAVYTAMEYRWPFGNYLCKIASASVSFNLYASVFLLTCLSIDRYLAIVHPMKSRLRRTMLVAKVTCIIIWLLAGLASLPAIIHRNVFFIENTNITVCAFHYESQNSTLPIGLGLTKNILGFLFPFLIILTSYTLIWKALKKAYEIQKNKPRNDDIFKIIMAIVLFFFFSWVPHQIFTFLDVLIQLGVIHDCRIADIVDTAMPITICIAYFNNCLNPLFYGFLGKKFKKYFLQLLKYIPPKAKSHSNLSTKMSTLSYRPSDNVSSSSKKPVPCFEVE
Hi there, I'd appreciate the recorded log10(IC50) for every entry that follows.
Lab note - IC50 converted to log10 from values in nM.

// query # get_value(readout='log10(IC50)', item= CCCCc1n[nH]c(C(=O)O)c1Cc1ccc(-c2ccccc2-c2nn[nH]n2)cc1 )
// result 0.30

// query What value of measured log10(IC50) is listed for CCOC(=O)c1c(Cc2ccc(-c3ccccc3-c3nnn[nH]3)cc2)c(CC2CC2)nn1-c1c(Cl)cccc1Cl ?
// result 1.88

// query For the compound CCCc1nn(-c2ccccc2C(F)(F)F)c(C(=O)OCC)c1Cc1ccc(-c2ccccc2-c2nnn[nH]2)cc1 , what log10(IC50) is on record?
// result 1.75

// query I'd like to know its log10(IC50). The compound in question is CCCCc1nn(CC(F)(F)F)c(C(=O)OCC)c1Cc1ccc(-c2ccccc2-c2nn[nH]n2)cc1
// result 1.48

// query Would you mind telling me what log10(IC50) value was observed for CCCCc1nc(-c2ccccc2)c(C(=O)OCC)n1Cc1ccc(-c2ccccc2-c2nn[nH]n2)cc1 ?
// result 1.61
